The origin of these recorded values is patent US20240376085A1.

Tested on: IL-17A-induced G-CSF production in human normal keratinocyte (NHK)
assay_overview: NHK assay: IL-17A-induced G-CSF production in normal human keratinocytes
Format: cell-based
experimental_parameters: Homo sapiens, Keratinocyte, 24 h, IL-17A 5 ng/mL, average if tested more than once
pIC50: −log10 of the molar value.
experimental_endpoint: pIC50

[
  {
    "molecule": "C[C@@H](OC[C@H](NC(=O)c1nonc1C1CC1)c1nc2ccc([C@H](NC(=O)CC3CC(F)(F)C3)C3CC3)cc2[nH]1)C(F)(F)F (relative stereo)",
    "result": "< 7.00"
  },
  {
    "molecule": "C[C@@H](NC(=O)CCC(F)(F)F)c1ccc2nc([C@@H](NC(=O)c3cnnn3CCC(F)F)C3CCC(F)(F)CC3)[nH]c2c1",
    "result": "< 7.00"
  },
  {
    "molecule": "C[C@@H](NC(=O)CCC(F)(F)F)c1ccc2nc([C@@H](NC(=O)c3cnnn3CCC(C)(C)C)C3CCC(F)(F)CC3)[nH]c2c1",
    "result": "< 7.00"
  },
  {
    "molecule": "C[C@@H](NC(=O)CCC(F)(F)F)c1ccc2[nH]c([C@@H](NC(=O)c3cnnn3CC(F)(F)F)C3CCC(F)(F)CC3)nc2c1",
    "result": "< 7.00"
  },
  {
    "molecule": "C[C@@H](NC(=O)CCC(F)(F)F)c1ccc2[nH]c([C@@H](NC(=O)[C@@H]3C[C@H]3F)C3CCC(F)(F)CC3)nc2c1",
    "result": "< 7.00"
  },
  {
    "molecule": "CC(C)n1nccc1C(=O)N[C@@H](CC(C)(C)C(F)F)c1nc2ccc([C@H](NC(=O)CC3CC(F)(F)C3)C3CC3)cc2[nH]1",
    "result": "7.00 to 7.30"
  }
]
